B1: EHMT1 (parent)
chain: FHKDCASRVNNASYCPHCGEESSK

# Variants of: B1
# ASSAY: protein stability index of a GFP-peptide fusion (GPS, HEK-293T) (PSI 1-6); higher = more stable;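 also: lentivirally expressed fusions sorted by FACS into six bins by GFP to DsRed ratio, PSI derived from sequencing read proportions per bin multiplied by bin number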
# CONDITION DESCRIPTION: c terminus: a fixed tail appended
Please note: MET applies when protein stability index is 3 or greater, and NOT MET applies otherwise.

Study these solved cases before continuing.
MUTATION: H17V
ASSIGNED LABEL: MET
//
MUTATION: N11P
ASSIGNED LABEL: MET
//
MUTATION: S13A
ASSIGNED LABEL: MET
//
MUTATION: H2A
ASSIGNED LABEL: NOT MET
//
MUTATION: A6W
ASSIGNED LABEL: NOT MET

Entry Y14M : is its protein stability index no less than 3?
MET

Entry F1D : is its protein stability index no less than 3?
MET

Entry R8Q : is its protein stability index no less than 3?
MET
